Data origin, for the record: ChEMBL document CHEMBL1155784

System: M21
Test: Inhibition of nuclear translocation of thioredoxin 1 in human M21 cells at 25 uM after 18 hrs by immunocytochemistry
Assay type: functional, cell-based
Active and inactive are the calls of the source. The calls are words filed in the database; no cut-off is given here.
EXPERIMENTAL_ENDPOINT: Activity

// Activity lookup, molecule = c1cc(NC2=NCCO2)cc(OC2CCCCC2)c1 , result: Active

// Activity lookup, molecule = c1cc(NC2=NCCO2)cc(OC2CCCCCC2)c1 , result: Active

// Activity lookup, molecule = c1ccc(COc2ccc(NC3=NCCO3)cc2)cc1 , result: Active

* * *

Test system: MCF7
Assay: Cell cycle arrest in human MCF7 cells assessed as G2/M phase accumulation at 2 times GI50 after 24 hrs by flow cytometry
EXPERIMENTAL_ENDPOINT: Activity (%)
Write down the numeric answer in % and omit the unit.

// Activity lookup, compound = Ic1ccc(NC2=NCCO2)cc1 , result: 76

// Activity lookup, compound = O=C(CCl)NC(=O)Nc1ccc(I)cc1 , result: 10

// Activity lookup, compound = c1cc(NC2=NCCO2)cc(OC2CCCCC2)c1 , result: 38

// Activity lookup, compound = O=C(CCl)NC(=O)Nc1ccc(OC2CCCCCC2)cc1 , result: 11

// Activity lookup, compound = O=C(CCl)NC(=O)Nc1ccc(OC2CCCCC2)cc1 , result: 10

// Activity lookup, compound = O=C(CCl)NC(=O)Nc1cccc(OC2CCCC2)c1 , result: 13

// Activity lookup, compound = c1cc(NC2=NCCO2)cc(OC2CCCCCC2)c1 , result: 24

// Activity lookup, compound = O=C(CCl)NC(=O)Nc1cccc(OC2CCCCCC2)c1 , result: 11

// Activity lookup, compound = c1cc(OC2CCCC2)ccc1NC1=NCCO1 , result: 7

// Activity lookup, compound = O=C(CCl)NC(=O)Nc1ccc(C2CCCCC2)cc1 , result: 24

// Activity lookup, compound = c1cc(OC2CCCCCC2)ccc1NC1=NCCO1 , result: 4

// Activity lookup, compound = O=C(CCl)NC(=O)Nc1cccc(OC2CCCCC2)c1 , result: 7

// Activity lookup, compound = c1cc(C2CCCCC2)ccc1NC1=NCCO1 , result: 11

// Activity lookup, compound = c1cc(OC2CCCCC2)ccc1NC1=NCCO1 , result: 5

// Activity lookup, compound = c1cc(NC2=NCCO2)cc(OC2CCCC2)c1 , result: 6

// Activity lookup, compound = O=C(CCl)NC(=O)Nc1ccc(OC2CCCC2)cc1 , result: 9

// Activity lookup, compound = CC(C)(C)c1ccc(NC2=NCCO2)cc1 , result: 74
